# Test system: Mus musculus
# measurement.description: Maximum tolerated dose after intraperitoneal administration in mouse (period of 28 days)
# Assay type: functional
Hi there, I'd appreciate the recorded MTD for every entry that follows.
Response body: numeric value in mg/kg, unit text excluded.

Ask: Can you look up MTD on Mus musculus for C[C@@H]1C[C@@]2(N=C(N)CS2)[C@]2(O)O[C@@H]3C[C@@]4(C=O)[C@@H](CC[C@@H]5[C@@H]4CC[C@]4(C)[C@@H](C6=CC(=O)OC6)CC[C@]54O)C[C@H]3O[C@@H]2O1 ?
Result: 5

Ask: Can you look up MTD on Mus musculus for C[C@@H]1C[C@@]2(NC(=O)CS2)C2(O)O[C@@H]3C[C@@]4(CO)[C@@H](CC[C@@H]5[C@@H]4CC[C@]4(C)[C@@H](C6=CC(=O)OC6)CC[C@]54CO)C[C@H]3O[C@@H]2O1 (some centres undefined) ?
Result: 80

----------
Hi there, I'd appreciate the recorded pIC50 for every entry that follows.
# Tested on: HCT-15
# measurement.description: Concentration required for 50% growth inhibition of human HCT-15 cancer cell lines after 3 days of culture
# Type: functional, cell-based
# measurement.parameters: HCT-15, 72 h
pIC50: −log10 of the molar value.

Ask: Can you look up pIC50 on HCT-15 for C[C@@H]1C[C@@]2(NC(=O)CS2)C2(O)O[C@@H]3C[C@@]4(COC(=O)CCc5ccccc5)[C@@H](CC[C@@H]5[C@@H]4CC[C@]4(C)[C@@H](C6=CC(=O)OC6)CC[C@]54CO)C[C@H]3O[C@@H]2O1 (stereo partly drawn) ?
Result: < 5.00

Ask: Can you look up pIC50 on HCT-15 for C[C@@H]1C[C@@]2(N=C(N)CS2)C2(O[Si](C)(C)C)O[C@@H]3C[C@@]4(C=O)[C@@H](CC[C@@H]5[C@@H]4CC[C@]4(C)[C@@H](C6=CC(=O)OC6)CC[C@]54CO[Si](C)(C)C)C[C@H]3O[C@@H]2O1 (stereo partly drawn) ?
Result: < 5.00

Ask: Can you look up pIC50 on HCT-15 for C[C@@H]1C[C@@]2(NC(=O)CS2)C2(O)O[C@@H]3C[C@@]4(COS(C)(=O)=O)[C@@H](CC[C@@H]5[C@@H]4CC[C@]4(C)[C@@H](C6=CC(=O)OC6)CC[C@]54CO)C[C@H]3O[C@@H]2O1 (stereo partly drawn) ?
Result: < 5.00
